- assay target: T1, PD-1 (analyte of the SPR assay of Example 3) (human, UniProt Q15116 21-167, limits assumed)
- T1 construct: also called human PD-1
- T1 sequence (Q15116 21-167 limits assumed): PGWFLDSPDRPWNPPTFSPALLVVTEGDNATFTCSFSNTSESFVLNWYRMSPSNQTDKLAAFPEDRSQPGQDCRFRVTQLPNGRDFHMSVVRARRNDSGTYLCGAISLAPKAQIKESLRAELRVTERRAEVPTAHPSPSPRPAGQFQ
- assay: SPR (Biacore 8K), antibody captured by anti-human Fc, PD-1 as analyte

binder	kon, M⁻¹ s⁻¹
VH6 + VL6 (antibody, human IgG1, kappa, V domains shown, Humanized full-length IgG expressed in HEK293; also called HC1 + LC2) VH: EVQLVESGGGLVQPGGSLRLSCAASGFTFSSYGMSWVRQAPGKRLEWVAIISGGGRDIYYLDSVKGRFTISRDNSKNTLYLQMNSLRAEDTAVYYCSSPIYDAYSFAYWGQGTLVTVSS VL: EIVLTQSPATLSVSPGERATLSCRASQTISNNLHWYHQKPGQAPRLLIKYASQSISGIPSRFSGSGSGTDFTLTISSLQSEDFAVYFCQQSYSWPLTFGGGTKLEIKR	156000
